System: human ovarian cancer (SKOV3) cells
Assay: MTT tumor cell growth inhibition, human ovarian cancer (SKOV3)
Assay type: cell-based
Settings: Homo sapiens, SK-OV-3; SKOV3, 48 h culture, MTT method; read-out: IC50 value of target compound against cancer cell proliferation, SKOV3
pIC50: −log10 of the molar value.
observed.property: pIC50

>>> print(df.to_string())
                                   compound  assay_value
0  COc1cc(CN(C)CC(O)COc2ccc(Cl)c(Cl)c2)ccc1OCCN1CCCC1 (centres unmarked)         5.02
1  CCN(CC)CCOc1ccc(CN(C)CC(O)COc2ccccc2C(C)C)cc1OC (centres unmarked)         4.37
2  COc1cc(CN(C)CC(O)COc2cccc(C(F)(F)F)c2)ccc1OCCN1CCC(C)CC1 (centres unmarked)         5.48
3  COc1cc(CN(C)CC(O)COc2c(Cl)cc(Br)cc2Cl)ccc1OCCN1CCC(C)CC1 (centres unmarked)         5.21
4  COc1cc(CN(C)CC(O)COc2ccc(Cl)cc2)ccc1OCCN1CCC(C)CC1 (centres unmarked)         4.98
5  COc1cc(CN(C)CC(O)COc2ccc(NC(C)=O)cc2)ccc1OCCN1CCC(C)CC1 (centres unmarked)         3.84
6  CCOc1ccccc1OCC(O)CN(C)Cc1ccc(OCCN2CCC(C)CC2)c(OC)c1 (centres unmarked)         4.68
7  COc1cc(CN(C)CC(O)COc2ccc(Cl)cc2Cl)ccc1OCCN1CCC(C)CC1 (centres unmarked)         5.49

Reference for the values: patent US20240166602A1
